Tested on: TriFpep (peptidase domain of D-peptidase TriF)
Protocol notes: Peptide hydrolysis assay with TriFpep (UPLC–MS cleavage ratio)
Format: in vitro ADME, Paenibacillus polymyxa CICC10580
Test parameters: Paenibacillus polymyxa; TriFpep 200 nM, substrate 50 μM, 25% PBS buffer pH 7.4, 37 °C, end-point after 24 h incubation, cleavage ratio by UPLC–MS, two independent experiments
Parameter measured: metabolised at 24 h (%)
Give bare numbers, in %.

>  <Compound>
CCCCCCCC(=O)N[C@@H](C(=O)N[C@H](CCN)C(=O)NCC(=O)N[C@H](CO)C(=O)N[C@H](Cc1c[nH]c2ccccc12)C(=O)N(C)CC(=O)N[C@@H](CCN)C(=O)N[C@H](CCN)C(=O)NC(C)(Cc1ccccc1)C(=O)N[C@@H](CCC(=O)O)C(=O)N[C@H](C(=O)N[C@@H](C(=O)N[C@@H](C)C(=O)O)C(C)C)C(C)C)C(C)C (some centres unmarked) [compound 23, Oct-TriA2 (6-Sar, 9-αMePhe)]

>  <Measured on>
TriFpep (peptidase domain of D-peptidase TriF)

>  <metabolised at 24 h / %>
0

$$$$

Turning to the following compound.
Form: compound = CCCCCCCC(=O)N[C@@H](C(=O)N[C@H](CCN)C(=O)NCC(=O)N[C@H](CO)C(=O)N[C@H](Cc1c[nH]c2ccccc12)C(=O)N(C)CC(=O)N[C@@H](CCN)C(=O)N[C@H](CCN)C(=O)NC(C)(Cc1ccccc1)C(=O)N[C@@H](CCC(=O)O)C(=O)N[C@H](C(=O)N[C@@H](C(=O)N[C@@H](C)C(=O)O)[C@@H](C)CC)C(C)C)C(C)C (some centres unmarked) [compound 25, Oct-TriA2 (6-Sar, 9-αMePhe)] ; metabolised at 24 h = 0

Measured values drawn from paper PMC6887851 for this set.
